Where do the numbers come from? From the Human Domainome abundance scans (Beltran et al. 2025).

B1: Protein S100-G, residues 1 to 79; numbered along this chain, P02633 (parent)
chain: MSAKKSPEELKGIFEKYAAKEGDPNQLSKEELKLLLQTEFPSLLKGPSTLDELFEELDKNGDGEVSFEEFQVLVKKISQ

# Variants of: B1
# methodDescription: abundance fitness (aPCA) (normalised: wild type 0, dead -1); higher = more abundant; growth selection in yeast, the domain comes from the species named
# appliedConditions: Bos taurus
Returns one of Yes or No; Yes when abundance fitness is >= -0.05.

For orientation, consider the following solved cases.
- residueChange: "K75L"
  qualitativeLabel: "Yes"
- residueChange: "K76Y"
  qualitativeLabel: "No"
- residueChange: "L27Y"
  qualitativeLabel: "No"

Please check the record E64I and state if its abundance fitness is at or above -0.05.
No
